Assay: PSAC antagonists in infected red cells, primary screen, cell-based, P. falciparum Indochina, OD700, 2 h (AID 1155);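 further: lysis reports solute entry through the parasite surface anion channel PSAC; channel blockers reduce lysis of infected cells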
Details: P. falciparum Indochina infected erythrocytes, osmotic lysis OD700; higher = more signal, called active from +8 up or from −8 down
Our labelling divides records by z-score into ranges: interval 1: < 0.4; interval 2: ≥ 0.4 and < 3; interval 3: ≥ 3

{"COMPOUND": "O=C1O[C@H](c2ccccc2)[C@H](c2ccccc2)N2[C@H]1[C@@H](C(=O)NC[C@H](O)c1ccccc1)[C@]1(C(=O)Nc3ccc(C#CC4=CCCCC4)cc31)[C@H]2c1ccc(OCCO)cc1", "CAT": "interval 2"}

Exam item: assign COc1ccc([Si](C)(C)[C@H]2[C@H](CC(=O)N3Cc4ccccc4C[C@H]3CO)O[C@@]3(C(=O)N(Cc4cccc(N5CCOC5=O)c4)c4ccccc43)[C@@H]2C)cc1 to the correct category. interval 2

Exam item: assign CO[C@@H]1COC(=O)CC=C[C@H](C)COC(=O)[C@H](Cc2ccccc2)NC(=O)CC=C[C@H]1C to the correct category. interval 1

Exam item: assign COC(=O)Cn1c(C(=O)N2CCCC2)cc2c1C[C@H]1CN(C(=O)c3ccccc3)[C@@](Cc3ccccc3)(C(=O)OC)[C@@H]21 to the correct category. interval 1

Exam item: assign COc1ccc([Si](C)(C)[C@H]2[C@H](CCO)O[C@@]3(C(=O)N(Cc4ccc(N5CCCCC5=O)cc4)c4ccccc43)[C@@H]2C)cc1 to the correct category. interval 3

Exam item: assign O=C(NCc1ccccc1)[C@@]1(CCS(=O)(=O)c2ccccc2)COC(c2ccc(OCCCO)cc2)=N1 to the correct category. interval 3

Exam item: assign CC(c1ccccc1)C(O)C1C=CC2C(=O)N(C)C(=O)C2N1N(c1ccccc1)c1ccccc1 (stereo not given) to the correct category. interval 1

Exam item: assign COC(=O)C(CC#Cc1ccc2c(c1)[C@]1(C(=O)N2)[C@H](C(=O)N2CCCCCCC2)[C@H]2C(=O)O[C@H](c3ccccc3)[C@H](c3ccccc3)N2[C@@H]1c1ccc(O)cc1)C(=O)OC to the correct category. interval 1

Exam item: assign COc1ccc(C(=O)Nc2ccc(CN3C(=O)[C@]4(O[C@H](CCn5cc(CCO)nn5)[C@@H]([Si](C)(C)c5ccc(OC)cc5)[C@@H]4C)c4ccccc43)cc2)cc1 to the correct category. interval 2

Exam item: assign NC(=O)[C@H]1[C@@H]2C(=O)O[C@@H](c3ccccc3)[C@@H](c3ccccc3)N2[C@@H](c2ccc(O)cc2)[C@]12C(=O)Nc1ccc(C#CCCO)cc12 to the correct category. interval 2

* * *

Test: RPMI8226 myeloma cell viability, profiling panel, resazurin fluorescence, basal, 24 h, PK04 Diversity Set (AID 1180);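 further: RPMI8826 multiple myeloma cell line at 5000 cells per well; test concentration not given here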
Conditions: higher = more signal
Would you kindly list z-score for each of these molecules?
One number for each entry.

{"MOLECULE": "COc1cc(CO)cc(I)c1O[C@H]1C=C(C(=O)NCCO)C[C@@H](N(CC2CCCCC2)C(=O)c2cc3ccccc3oc2=O)[C@@H]1O", "MEASUREMENT": 0.393}
{"MOLECULE": "O=C1c2ccccc2[C@](Cc2ccccc2I)(C(=O)O)[C@H](c2ccc(CO)cc2)N1C1CCCCC1", "MEASUREMENT": 1.36}
{"MOLECULE": "CCCCCCc1nc(-c2cc(C)c(OC)c(C)c2)cc2c1[Si](C(C)C)(C(C)C)O[C@H]2c1ccccc1", "MEASUREMENT": 0.219}
{"MOLECULE": "C=CC[C@@]1(C(=O)NCC(O)CO)N=C(c2ccc(OCCCO)cc2)O[C@@H]1c1ccccc1CN=[N+]=[N-] (stereo partly specified)", "MEASUREMENT": 0.516}
{"MOLECULE": "C[C@H]1NC(=O)[C@@H](C)NC(=O)[C@@]23C(=O)N[C@@H](Cc4ccccc4)C2[C@H](C)[C@@]2(C)O[C@H]2C3/C=C/C/C=C\\CNC1=O (stereo partly specified)", "MEASUREMENT": 1.02}

Give z-score for each listed item.
1. CCCC=C(CCC)[C@@H](NS(=O)(=O)c1ccc(C(F)(F)F)cc1)c1ccc(-c2ccccc2)cc1
2. CO[C@@H]1COC(=O)CC=C[C@@H](C)[C@H](OC)COC(=O)CC=C[C@H]1C
3. CCCC[C@H]1OB(O)C[C@H]2C1=C(COC)C[C@H]1C(=O)N(Cc3ccccc3)C(=O)[C@H]12
4. CO[C@H]1COC(=O)CC=C[C@@H](C)COC(=O)[C@@H](C)NC(=O)CC=C[C@@H]1C
5. C[C@]1(C(=O)NCCN2CCOCC2)c2ccccc2C(=O)N(Cc2ccccc2)[C@H]1c1ccc(CO)cc1

0.719
0.854
0.283
0.181
0.85
